system: P. falciparum NF54 male gametocytes (stage V); assay: Male gamete exflagellation assay; assay type: cell-based, Plasmodium falciparum; settings: Plasmodium falciparum, NF54, read-out: Exflagellation @ 1 uM (% of DMSO) 1
Label Y when activity at 1 µM is at or above 20%; otherwise label N.

{"molecule": "COc1cc(CNCC2CCNCC2)ccc1OCc1cccc(Cl)c1 [Compound 53]", "classification": "N"}
{"molecule": "COc1ccc(Nc2cc(C)nc(Nc3ccc(NC(=O)c4cc(C)cc(C)c4)cc3)n2)cc1 [Compound 64]", "classification": "Y"}
{"molecule": "COc1ccccc1Cn1cc2c(-c3ccc(F)cc3)nnc-2c2cc(OC)c(OC)cc21 [Compound 31]", "classification": "Y"}
{"molecule": "O=C(c1ccc([N+](=O)[O-])o1)N1CCC(Cn2cnc3ccccc32)CC1 [Compound 69]", "classification": "N"}
{"molecule": "Cc1ccc2nc(-c3ccccc3)c(CSc3cccc[n+]3[O-])n2c1 [Compound 16]", "classification": "Y"}
{"molecule": "COc1ccc(NC(=O)Nc2ccc(Nc3nc(C)cc(Nc4ccc(C)cc4)n3)cc2)cc1 [Compound 65]", "classification": "N"}
{"molecule": "OC(c1ccc(Cl)cc1)C1CCN(CCCN2CCC(C(O)c3ccc(Cl)cc3)CC2)CC1 (stereo not drawn) [Compound 13]", "classification": "N"}
{"molecule": "Cc1ccc(Nc2cc(C)nc(Nc3ccc(NC(=O)c4cc5ccccc5oc4=O)cc3)n2)cc1 [Compound 63]", "classification": "Y"}
{"molecule": "Clc1ccc(Nc2nc(-c3ccccn3)cs2)nc1 [Compound 39]", "classification": "Y"}

###

# reported IC50; entries follow
tested on: P. falciparum NF54 hsp86-PpyRE13 gametocytes; test: P. falciparum gametocyte luminescence assay (PfLuc), line NF54 hsp86-PpyRE13; type: cell-based, Plasmodium falciparum; settings: Plasmodium falciparum, NF54, read-out: Pf Gametocytes NF54 HSP86 (IC50 nM)
quantity_measured: IC50 (nM)

{"compound": "OC(c1ccc(Cl)cc1)C1CCN(CCCN2CCC(C(O)c3ccc(Cl)cc3)CC2)CC1 (stereo not drawn) [Compound 13]", "measure_unit": "nM", "reported_result": 1600}
{"compound": "COc1ccc(Nc2cc(C)nc(Nc3ccc(NC(=O)c4cc(C)cc(C)c4)cc3)n2)cc1 [Compound 64]", "measure_unit": "nM", "reported_result": 215}
{"compound": "Clc1ccc(Nc2nc(-c3ccccn3)cs2)nc1 [Compound 39]", "measure_unit": "nM", "reported_result": 382}

The values you see were collected from paper PMC9170688.
